# System: 435261-313-R-J1-PDC tumor spheroid viability;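 note: spheroids exposed to compounds for 7 days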
# measurement-protocol: Anticancer human tumor 435261-313-R-J1-PDC patient-derived colon adenocarcinoma cell line growth inhibition [PI3K]
# condition-description: second compound 0.316 µM; first compound 10 µM; hits give low values; spheroids with HUVEC and MSC
measured-endpoint: viability, T/C (%)
Hi! Could you send only the number? It should be in %, unit omitted.

Challenge: Reported viability, T/C for CC1(C)CCC(Nc2ncc(C(F)(F)F)c(-c3c[nH]c4c(P(C)(C)=O)c(C#N)ccc34)n2)CN1 (stereo not drawn) + CC(Nc1ncnc2nc[nH]c12)c1cc2cccc(Cl)c2c(=O)n1-c1ccccc1 : what is it?
Response given: 0.98

Challenge: Reported viability, T/C for CNC(=O)c1ccc(N2C(=S)N(c3ccc(C#N)c(C(F)(F)F)c3)C(=O)C2(C)C)cc1F + COc1c(OCCCN2CCOCC2)ccc2c3n(c(=NC(=O)c4cnc(N)nc4)nc12)CCN3 : what is it?
Response given: 8.88

Challenge: Reported viability, T/C for CC(C)NCC(C(=O)N1CCN(c2ncnc3c2C(C)CC3O)CC1)c1ccc(Cl)cc1 (stereo not drawn) + CC(Nc1ncnc2nc[nH]c12)c1cc2cccc(Cl)c2c(=O)n1-c1ccccc1 : what is it?
Response given: 26
